# ASSAY METHOD TEXT: gradient 5% acetonitrile 3 min, to 50% in 2 min, to 85% in 15 min, held 3 min, 100 µL/min
# ASSAY CONTEXT: column: Zorbax Extend-C18 2.1 x 50 mm; eluents: water / acetonitrile, 0.1% formic acid

{"columns": ["COMPOUND", "RP-LC retention time"],
 "data": [
  ["O=C(CSc1cn(CCNC(=O)c2ccccc2)c2ccccc12)Nc1ccccc1F", "863 s"],
  ["COCCN1C(=O)CCc2cc(NS(=O)(=O)c3cc(C)c(C)cc3C)ccc21", "833 s"],
  ["CCOc1ccc(C(=O)N2C[C@@H]3C[C@H]2C[C@@H]3NC(=O)c2cccs2)cc1", "758 s"],
  ["Cc1cc(C)cc(NC(=O)Cn2c(=O)c3cc(C4CC4)nn3c3ncccc32)c1", "837 s"],
  ["Cc1ccc(NC(=O)N2C[C@@H](F)C[C@H]2C(=O)N2CCc3ccccc3C2)cc1Cl", "895 s"],
  ["O=C(Nc1ccccc1F)N1CCN(Cc2nc3ccc(Cl)cc3o2)CC1", "745 s"],
  ["COc1cccc(N2CC(c3nc4ccccc4n3CC(=O)N3CCCC3)CC2=O)c1 (centres undefined)", "619 s"],
  ["COC(=O)c1c(NCc2ccc(F)cc2F)c2cc(F)ccc2[nH]c1=O", "769 s"],
  ["CCCn1c(-c2cccc(C(=O)NC(CC)c3cccs3)c2)nc2cccnc21 (centres undefined)", "886 s"]
]}
